Test system: iCell cardiomyocytes (human iPSC-derived cardiomyocytes)
Test: High-content imaging of cytotoxicity and mitochondrial integrity in iPSC-CMs
Type: cell-based
Settings: Homo sapiens, Cardiomyocyte, 1.5 h, 100.00 µM; 0.00 µM = 100.00; read-out: cm.mii.90min
Structures can show the parent of a compound that is named as a salt.
In this section, each of the molecules is paired with its reported activity at 100 µM.
Output should be the measured figure followed by the unit it is expressed in.

Solved entries (count: 3):
[
  {
    "MOLECULE": "O=S(=O)(O)Oc1cccc(-c2ccc(Cl)cc2)c1 [3'-yl PCB 3 sulfate]",
    "TARGET": "iCell cardiomyocytes (human iPSC-derived cardiomyocytes)",
    "activity at 100 µM": "91.3%"
  },
  {
    "MOLECULE": "Oc1ccc(O)c(-c2ccc(Cl)cc2)c1 [2',5'-DiOH PCB3]",
    "TARGET": "iCell cardiomyocytes (human iPSC-derived cardiomyocytes)",
    "activity at 100 µM": "0%"
  },
  {
    "MOLECULE": "Oc1ccc(-c2ccc(Cl)cc2)cc1 [4'-OH PCB3]",
    "TARGET": "iCell cardiomyocytes (human iPSC-derived cardiomyocytes)",
    "activity at 100 µM": "0%"
  }
]

Task item: Requested read-out activity at 100 µM, target or system iCell cardiomyocytes (human iPSC-derived cardiomyocytes), entry O=S(=O)(O)Oc1cc(Cl)ccc1-c1ccccc1 [2-yl PCB 3 sulfate]
Reply: 81%

Task item: # value lookup — system iCell cardiomyocytes (human iPSC-derived cardiomyocytes), readout activity at 100 µM, item Clc1cccc(-c2cccc(Cl)c2)c1 [PCB11]
Reply: 152%

====

Tested on: iPSC-CMs, iPSC-ECs and HUVECs phenotypes
Assay: ToxPi 2.0 integration of POD values and physicochemical descriptors
Set-up: species or system human
Settings: ToxPi-scaled (0-1) score; iPSC cardiomyocytes, 24 h
Description: Phenotypic responses were quantitatively assessed using concentration–response modeling as detailed elsewhere ([Sirenko et al. 2017]). Briefly, phenotypic readouts were normalized to vehicle controls and fit to a four-parameter logistic model in R studio software (version 3.1.1; R Development Core Team). […] The ability of physicochemical properties to predict differences in PODs were evaluated by multiregression and mixed-effects modeling using R. […]
Counter-ions that a name gives are not always drawn.
OBSERVABLE: cm.spacing.cv.24hrs
Give only the figure.

Task item: // map O=S(=O)(O)Oc1cccc(-c2ccc(Cl)cc2)c1 [3'-PCB 3 sulfate] to recorded cm.spacing.cv.24hrs (system: iPSC-CMs, iPSC-ECs and HUVECs phenotypes)
Reply: 0

Task item: Return cm.spacing.cv.24hrs measured with iPSC-CMs, iPSC-ECs and HUVECs phenotypes given this compound: Clc1ccc(Cl)c(-c2c(Cl)ccc(Cl)c2Cl)c1Cl [(+)-PCB 136, 2,2′,3,3′,6,6′-hexachlorobiphenyl]
Reply: 0.7501

Task item: Recorded cm.spacing.cv.24hrs for O=S(=O)(O)Oc1cc(Cl)c(-c2cc(Cl)ccc2Cl)cc1Cl [4-PCB 52 sulfate] with iPSC-CMs, iPSC-ECs and HUVECs phenotypes, please?
Reply: 0.207

Task item: # query: cm.spacing.cv.24hrs | item Oc1ccc(-c2ccc(Cl)cc2)cc1 [4'-OH-PCB 3] | system: iPSC-CMs, iPSC-ECs and HUVECs phenotypes
Reply: 0.1936
